FYI, the data here is from ChEMBL document CHEMBL1201862.

tested on: SF-268; experiment: NCI tumour cell line growth inhibition, 48 h
Activity calls are given as the source filed them. Rule as the data show it: active = GI50 up to about 1.1 µM and inactive = higher.
Your response should consist of one outcome taken from label 1 (active), label 0 (inactive)

Below, 5 compounds whose answers are already recorded.
| compound | target-entity | answer-label |
| --- | --- | --- |
| COc1cc2c(cn1)[nH]c1ccccc12 | SF-268 | label 0 |
| CCOC(=O)C1C(c2ccc3c(c2)OCO3)c2c(n[nH]c2O)CC1(O)OCC (stereo not given) | SF-268 | label 0 |
| CC(=O)C(=NNc1ccc(-n2c(C)nc3ccc(Br)cc3c2=O)cc1)C(C)=O | SF-268 | label 0 |
| Cc1nc(Nc2nnc(-c3cc([N+](=O)[O-])cc([N+](=O)[O-])c3C)o2)sc1C(=O)CC(=O)Cc1nc2ccc(Cl)cc2nc1O | SF-268 | label 0 |
| COc1cc2c(c(OC)c1OC)-c1ccc(SC)c(=O)cc1[C@@H](OC(C)=O)CC2 | SF-268 | label 1 |

Entry "[N-]=[N+]=Nc1c(Cl)c(Cl)nc2ccccc12" : call = ?
label 0

Recorded call for "CCCCNc1nc2ccccc2c2c1ncn2CC(C)C" ?
label 0

---

system: OVCAR-4; assay: NCI tumour cell line growth inhibition, 48 h
Calls of active or inactive are those of the source. Cut-off read from the data, not from the text of the source: active = GI50 up to about 1.1 µM and inactive = higher.
property: GI50

For orientation, consider the following solved cases.
| compound | value-observed |
| --- | --- |
| COC(=O)/C(=C\c1ccco1)P(=O)(OC)OC | 17.8 µM (inactive) |
| O=C(O)c1cnccc1-c1cc(=O)[nH]n1-c1ccccc1 | > 51.9 µM (inactive) |
| COc1ccccc1NC(=O)CC(=O)N1N=C(c2ccccc2)C(/N=N/c2ccc(Cl)cc2)C1=O (centres undefined) | 25.2 µM (inactive) |
| N#CC(C(=O)/C(=N/NC(=O)c1ccccc1O)C(C#N)c1ccccc1)c1ccccc1 (centres undefined) | > 100 µM (inactive) |
| O=c1c2ccccc2c(=O)c2c1c1[nH]c3ccccc3c1c1c(=O)c3ccccc3c(=O)c21 | > 100 µM (inactive) |
| C/C(=N\Nc1nc2ccccc2o1)c1cc2ccccc2cn1 | 0.0906 µM (active) |
| COC(=O)C(=O)C(C(=O)C(=O)Nc1cc(C)ccc1C)c1nc2ccc(C(=O)c3ccccc3)cc2nc1O (centres undefined) | > 100 µM (inactive) |
| COc1cc(C2C=C(c3ccccc3)Oc3cc4c(cc32)OCO4)cc(OC)c1OC (centres undefined) | 6.37 µM (inactive) |

// GI50 value for "S=C(Nc1ccc(Cl)cc1)c1ccc(CN2CCCCC2)s1" : 12.5 µM (inactive)

Notebook: COc1cccc(C2CC(C)(O)Oc3cc4c(cc32)OCO4)c1O (centres undefined) , GI50 read as 38.8 µM (inactive)

---

system: COLO 205; experiment: NCI tumour cell line growth inhibition, 48 h
Activity calls are given as the source filed them. No stated cut-off is given here; in the data, active = GI50 up to about 1.1 µM and inactive = higher. Where a SMILES comes first, the peptide text is derived from it.
Measured GI50, listed per entry for reference.

| compound | value-observed |
| --- | --- |
| COc1ccc(NC(=O)CC/C(CC(=O)C(C)(C)C)=N\NC(=O)C(=O)NN)cc1 | > 100 µM (inactive) |
| O=C(Cc1nc2ccccc2s1)C(=O)Nc1cccc(Cl)c1 | > 100 µM (inactive) |
| CNC(=O)Nc1cc2c3c(c1)CCCN3CCC2 | > 10 µM (inactive) |
| [O-][n+]1c2ccccc2[n+]([O-])c2ccccc21 | 15.6 µM (inactive) |
| C[N+](C)(CCNC(=O)c1cccc2cc3ccccc3nc12)Cc1ccc([N+](=O)[O-])cc1 | > 100 µM (inactive) |

Lab book: GI50 of COc1ccccc1NC(=O)CC(=O)N1N=C(c2ccccc2)C(/N=N/c2ccc(Cl)cc2)C1=O (centres undefined) noted as 71.4 µM (inactive)

GI50 reported for this compound CC(C)CC(NC(=O)C(Cc1ccccc1)NC(=O)C(Cc1c[nH]c2ccccc12)NC(=O)CNC(=O)C(N)Cc1ccc(O)cc1)C(=O)O (centres undefined) (H-YGWFL-OH; configuration not given here) : 16.4 µM (inactive)

In plain terms, COC1(C(C)(C)C)C=C(C(C)(C)C)P(=O)(O)O1 (centres undefined) has a documented GI50 of > 100 µM (inactive)

Data point: "COc1cccc(CCn2c(N)c(C(=O)O)c3ccc([N+](=O)[O-])cc3c2=O)c1" ; GI50 = 20.7 µM (inactive)
